// data source = patent US20210292414A1

Target: T1, Sortilin SORTECDBAP_hB12390 (human/tetraodon chimera)
T1 construct: Shuffle construct: chimeric human/tetraodon Sortilin ECD with BAP tag
T1 chain: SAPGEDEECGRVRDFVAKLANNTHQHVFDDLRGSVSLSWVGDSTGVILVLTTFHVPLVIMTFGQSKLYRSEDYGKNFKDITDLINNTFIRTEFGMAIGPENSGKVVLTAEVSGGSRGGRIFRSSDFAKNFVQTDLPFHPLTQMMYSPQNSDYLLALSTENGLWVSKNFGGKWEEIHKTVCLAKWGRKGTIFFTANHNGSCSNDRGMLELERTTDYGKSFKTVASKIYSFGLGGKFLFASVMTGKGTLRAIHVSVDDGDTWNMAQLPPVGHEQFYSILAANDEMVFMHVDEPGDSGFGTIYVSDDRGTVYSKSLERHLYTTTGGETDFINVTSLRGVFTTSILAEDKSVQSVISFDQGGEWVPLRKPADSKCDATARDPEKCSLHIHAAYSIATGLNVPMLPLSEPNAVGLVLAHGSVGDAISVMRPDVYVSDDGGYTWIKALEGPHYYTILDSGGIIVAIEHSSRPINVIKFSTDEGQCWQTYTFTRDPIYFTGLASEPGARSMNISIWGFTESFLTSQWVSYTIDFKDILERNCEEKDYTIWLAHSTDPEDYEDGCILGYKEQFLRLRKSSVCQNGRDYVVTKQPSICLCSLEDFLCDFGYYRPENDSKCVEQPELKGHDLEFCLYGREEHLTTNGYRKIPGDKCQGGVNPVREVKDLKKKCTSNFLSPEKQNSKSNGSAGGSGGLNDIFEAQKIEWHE
Assay: BLI (Octet384RED)
EXPERIMENTAL READOUT: EC50 (ng/mL)
Unit ng/mL implied. Number only.

In plain terms, Antibody 6003-886 (antibody, human IgG1, V domains shown) VH: QVQLVQSGAEVKKPGASVKVSCKASGYTFTKYGISWVRQAPGQGLEWMGWISAYNGNTNYAQKLQDRVTMTTDTFTSTAYMELRSLRSDDTAVYFCARDGPLTGDFTFYGMDVWGQGTTVTVSS VL: EIVLTQSPATLSLSPGERATLSCRASQSVSSYLAWYQQKPGQAPRLLIYDASNRATGIPARFSGSGSGTDFTLTISSLEPEDFAVYYCQQRSNWPPFTFGPGTKVDIK has a documented EC50 of 3.36

In plain terms, Antibody 6003-936 (antibody, human IgG1, V domains shown) VH: EVQLVQSGAEVKKPGESLKISCKGSGYIFTSFWIGWVRQMPGKGLEWMGIIYPGDSDTRYSPSFQGQVTISADKSISTAYLQWSSLKASDTAMYYCARHSRGSFWYGAFQHWGQGTLVTVSS VL: EIVLTQSPDFQSVTPKEKVTITCRASQSIGSSLHWYQQKPDQSPKLLIKYASQSFSGVPSRFSGSGSGTDFTLTINSLEAEDAAAYYCHQSSSLPHTFGPGTKVDIK has a documented EC50 of 11.4

In plain terms, Antibody 6003-799 (antibody, human IgG1, V domains shown) VH: QVQLVESGGGVVQPGRSLRLSCAASGFTFSSYGMHWVRQAPGKGLEWVTVISYDGSNKYYADSVKGRFTISRDNSKNTLYLQMNSLRAEDTAVYYCAKLTGDAFDIWGQGTMVTVSS VL: EIVLTQSPATLSLSPGERATLSCRASQSVSSYLVWYQQKPGQAPRLLIYHASNRATGIPARFSGSGSGTDFTLTISSLEPEDFAVYYCQQRSNWPRITFGQGTRLEIK has a documented EC50 of 3.36
